Reference source: ChEMBL document CHEMBL2021854

Test system: Influenza A virus
Assay: Antiviral activity against Influenza A virus H1N1 infected in MDCK cells assessed as inhibition of virus-induced cytopathogenicity after 4 days by colorimetric formazan-based MTS assay
Type: functional, organism-based
Conditions: 96 h

STRUCTURE_NOTATION	TGT	EC50
Cc1nc(NCCCNc2ccnc3cc(Cl)ccc23)nc(-c2cccc([N+](=O)[O-])c2)c1C(=O)OC(C)C	Influenza A virus	> 160 nM
CCOC(=O)c1c(C)nc(NCCCCNc2ccnc3cc(Cl)ccc23)nc1C	Influenza A virus	> 800 nM
Cc1nc(NCCNc2ccnc3cc(Cl)ccc23)nc(-c2ccccc2[N+](=O)[O-])c1C(=O)OC(C)C	Influenza A virus	> 800 nM
CCOC(=O)c1c(C)nc(NCCCCNc2ccnc3cc(Cl)ccc23)nc1-c1ccccc1	Influenza A virus	> 160 nM
NC12CC3CC(CC(C3)C1)C2	Influenza A virus	154000 nM
CCOC(=O)c1c(C)nc(NCCCNc2ccnc3cc(Cl)ccc23)nc1C	Influenza A virus	> 4000 nM
CCOC(=O)c1c(C)nc(NCCCNc2ccnc3cc(Cl)ccc23)nc1-c1ccccc1	Influenza A virus	> 160 nM
CCOC(=O)c1c(C)nc(NCCNc2ccnc3cc(Cl)ccc23)nc1-c1ccccc1	Influenza A virus	> 160 nM
NC(=O)c1ncn([C@@H]2O[C@H](CO)[C@@H](O)[C@H]2O)n1	Influenza A virus	6700 nM
Cc1nc(NCCCCNc2ccnc3cc(Cl)ccc23)nc(-c2ccccc2[N+](=O)[O-])c1C(=O)OC(C)C	Influenza A virus	> 800 nM

----------
System: MDCK
Test: Cytotoxicity against MDCK cells assessed as cell viability by colorimetric formazan-based MTS assay
Parameters: species or system Canis lupus familiaris
Conditions: dog, mdck
MEASUREMENT_TYPE: log10 CC50 (log10 of the value in nM)

STRUCTURE_NOTATION	log10 CC50
CCOC(=O)c1c(C)nc(NCCCNc2ccnc3cc(Cl)ccc23)nc1-c1ccccc1	2.90
CCOC(=O)c1c(C)nc(NCCNc2ccnc3cc(Cl)ccc23)nc1-c1ccccc1	3.15
CCOC(=O)c1c(C)nc(NCCCCNc2ccnc3cc(Cl)ccc23)nc1C	2.90
Cc1nc(NCCNc2ccnc3cc(Cl)ccc23)nc(-c2ccccc2[N+](=O)[O-])c1C(=O)OC(C)C	3.34
CCOC(=O)c1c(C)nc(NCCCNc2ccnc3cc(Cl)ccc23)nc1C	4.76
CCOC(=O)c1c(C)nc(NCCCCNc2ccnc3cc(Cl)ccc23)nc1-c1ccccc1	2.95
Cc1nc(NCCCCNc2ccnc3cc(Cl)ccc23)nc(-c2ccccc2[N+](=O)[O-])c1C(=O)OC(C)C	3.36
Cc1nc(NCCCNc2ccnc3cc(Cl)ccc23)nc(-c2cccc([N+](=O)[O-])c2)c1C(=O)OC(C)C	2.70

----------
System: Plasmodium falciparum
Experiment: Antiplasmodial activity chloroquine-resistant Plasmodium falciparum K1 infected in human A+ erythrocytes assessed as inhibition of [3H]-hypoxanthine incorporation after 24 hrs by scintillation counting
Type: functional, organism-based
# IC50 per record follows

COMPOUND	TGT	UNIT_STRING	IC50
CCOC(=O)c1c(C)nc(NCCCNc2ccnc3cc(Cl)ccc23)nc1C	Plasmodium falciparum	nM	161
Cc1nc(NCCCNc2ccnc3cc(Cl)ccc23)nc(-c2cccc([N+](=O)[O-])c2)c1C(=O)OC(C)C	Plasmodium falciparum	nM	230
CCOC(=O)c1c(C)nc(NCCCC(C)CNc2ccnc3cc(Cl)ccc23)nc1-c1ccccc1 (centres undefined)	Plasmodium falciparum	nM	860
CCOC(=O)c1c(C)nc(NCCCCCCCNc2ccnc3cc(Cl)ccc23)nc1-c1ccccc1	Plasmodium falciparum	nM	618
CCOC(=O)c1c(C)nc(NCCNc2ccnc3cc(Cl)ccc23)nc1-c1ccccc1	Plasmodium falciparum	nM	139
CCOC(=O)c1c(C)nc(NCCCNc2ccnc3cc(Cl)ccc23)nc1-c1ccccc1	Plasmodium falciparum	nM	52.2
CCOC(=O)c1c(C)nc(Nc2ccc(Nc3ccnc4cc(Cl)ccc34)cc2)nc1-c1ccccc1	Plasmodium falciparum	nM	6190
CCOC(=O)c1c(C)nc(Nc2ccccc2Nc2ccnc3cc(Cl)ccc23)nc1-c1ccccc1	Plasmodium falciparum	nM	27300
Cc1nc(NCCCCNc2ccnc3cc(Cl)ccc23)nc(-c2ccccc2[N+](=O)[O-])c1C(=O)OC(C)C	Plasmodium falciparum	nM	3.6

----------
Test system: Plasmodium falciparum
Assay: Antiplasmodial activity chloroquine-resistant Plasmodium falciparum K1 infected in human A+ erythrocytes assessed as inhibition of [3H]-hypoxanthine incorporation after 24 hrs by scintillation counting
Format: functional, organism-based
pIC50: −log10 of the molar value.
MEASUREMENT_TYPE: pIC50

MOLECULE	MEASUREMENT_TYPE	MEASURED_NUMBER
Cc1nc(NCCCCNc2ccnc3cc(Cl)ccc23)nc(-c2cccc([N+](=O)[O-])c2)c1C(=O)OC(C)C	pIC50	6.72
Cc1nc(NCCCNc2ccnc3cc(Cl)ccc23)nc(-c2ccccc2[N+](=O)[O-])c1C(=O)OC(C)C	pIC50	6.64
CCOC(=O)c1c(C)nc(NCCCCCCCCCCCCNc2ccnc3cc(Cl)ccc23)nc1-c1ccccc1	pIC50	6.07
CCOC(=O)c1c(C)nc(NCC(C)Nc2ccnc3cc(Cl)ccc23)nc1-c1ccccc1 (stereo unspecified)	pIC50	4.55
CCOC(=O)c1c(C)nc(NCCCCNc2ccnc3cc(Cl)ccc23)nc1-c1ccccc1	pIC50	7.58
CCOC(=O)c1c(C)nc(NCCCCNc2ccnc3cc(Cl)ccc23)nc1C	pIC50	5.78
C[C@H]1[C@H](OC(=O)CCC(=O)O)O[C@@H]2O[C@@]3(C)CC[C@H]4[C@H](C)CC[C@@H]1[C@@]24OO3 [ARTESUNATE]	pIC50	8.55
CCOC(=O)c1c(C)nc(NCCCCCCCCNc2ccnc3cc(Cl)ccc23)nc1-c1ccccc1	pIC50	6.29
Cc1nc(NCCCNc2ccnc3cc(Cl)ccc23)nc(-c2ccc([N+](=O)[O-])cc2)c1C(=O)OC(C)C	pIC50	6.75
Cc1nc(NCCNc2ccnc3cc(Cl)ccc23)nc(-c2ccccc2[N+](=O)[O-])c1C(=O)OC(C)C	pIC50	7.02
CCOC(=O)c1c(C)nc(NCCCCCCCCCCNc2ccnc3cc(Cl)ccc23)nc1-c1ccccc1	pIC50	6.31

----------
# pEC50 per record follows
System: Human alphaherpesvirus 3
Assay: Antiviral activity against thymidine kinase-deficient […] infected in HEL cells assessed as reduction of virus plaque formation after 4 days
Assay type: functional, organism-based
Details: Human alphaherpesvirus 3, 07-1, HEL, 96 h
pEC50: −log10 of the molar value.

STRUCTURE_NOTATION	TGT	pEC50
Cc1nc(NCCNc2ccnc3cc(Cl)ccc23)nc(-c2ccccc2[N+](=O)[O-])c1C(=O)OC(C)C	Human alphaherpesvirus 3	< 4.70
Cc1nc(NCCCCNc2ccnc3cc(Cl)ccc23)nc(-c2ccccc2[N+](=O)[O-])c1C(=O)OC(C)C	Human alphaherpesvirus 3	< 5.40
Cc1nc(NCCCNc2ccnc3cc(Cl)ccc23)nc(-c2cccc([N+](=O)[O-])c2)c1C(=O)OC(C)C	Human alphaherpesvirus 3	< 5.40

----------
Test system: Vesicular stomatitis virus
Test: Antiviral activity against Vesicular stomatitis virus infected in HeLa cells assessed as inhibition of virus-induced cytopathogenicity after 4 days
Format: functional, organism-based
Settings: 96 h
# EC50 per record follows
MEASUREMENT_TYPE: EC50

COMPOUND	MEASUREMENT_TYPE	RESULT
NC(=O)c1ncn([C@@H]2O[C@H](CO)[C@@H](O)[C@H]2O)n1	EC50	> 250 µM
CCOC(=O)c1c(C)nc(NCCCCNc2ccnc3cc(Cl)ccc23)nc1-c1ccccc1	EC50	> 100 µM
Nc1ncnc2c1ncn2C[C@H](O)CO [(S)-DHPA]	EC50	22 µM
Cc1nc(NCCCNc2ccnc3cc(Cl)ccc23)nc(-c2cccc([N+](=O)[O-])c2)c1C(=O)OC(C)C	EC50	> 4 µM
Cc1nc(NCCNc2ccnc3cc(Cl)ccc23)nc(-c2ccccc2[N+](=O)[O-])c1C(=O)OC(C)C	EC50	> 100 µM
CCOC(=O)c1c(C)nc(NCCNc2ccnc3cc(Cl)ccc23)nc1-c1ccccc1	EC50	> 4 µM
Cc1nc(NCCCCNc2ccnc3cc(Cl)ccc23)nc(-c2ccccc2[N+](=O)[O-])c1C(=O)OC(C)C	EC50	> 20 µM
CCOC(=O)c1c(C)nc(NCCCNc2ccnc3cc(Cl)ccc23)nc1-c1ccccc1	EC50	> 100 µM
CCOC(=O)c1c(C)nc(NCCCCNc2ccnc3cc(Cl)ccc23)nc1C	EC50	> 20 µM
CCOC(=O)c1c(C)nc(NCCCNc2ccnc3cc(Cl)ccc23)nc1C	EC50	> 100 µM

----------
Test system: Plasmodium falciparum
Assay: Antiplasmodial activity chloroquine-sensitive Plasmodium falciparum 3D7 infected in human A+ erythrocytes assessed as inhibition of [3H]-hypoxanthine incorporation after 24 hrs by scintillation counting
Assay type: functional, organism-based
MEASUREMENT_TYPE: log10(IC50) (log10 of the value in nM)

COMPOUND	TGT	MEASUREMENT_TYPE	MEASURED_NUMBER
CCOC(=O)c1c(C)nc(NCCCCCCCCCCNc2ccnc3cc(Cl)ccc23)nc1-c1ccccc1	Plasmodium falciparum	log10(IC50)	3.25
Cc1nc(NCCCCNc2ccnc3cc(Cl)ccc23)nc(-c2cccc([N+](=O)[O-])c2)c1C(=O)OC(C)C	Plasmodium falciparum	log10(IC50)	2.84
CCOC(=O)c1c(C)nc(Nc2ccc(Nc3ccnc4cc(Cl)ccc34)cc2)nc1-c1ccccc1	Plasmodium falciparum	log10(IC50)	2.81
CCOC(=O)c1c(C)nc(NCCCCCCCCCCCCNc2ccnc3cc(Cl)ccc23)nc1-c1ccccc1	Plasmodium falciparum	log10(IC50)	2.42
Cc1nc(NCCCNc2ccnc3cc(Cl)ccc23)nc(-c2ccc([N+](=O)[O-])cc2)c1C(=O)OC(C)C	Plasmodium falciparum	log10(IC50)	2.70
CCOC(=O)c1c(C)nc(NCCCC(C)CNc2ccnc3cc(Cl)ccc23)nc1-c1ccccc1 (stereo not given)	Plasmodium falciparum	log10(IC50)	2.46
Cc1nc(NCCCNc2ccnc3cc(Cl)ccc23)nc(-c2cccc([N+](=O)[O-])c2)c1C(=O)OC(C)C	Plasmodium falciparum	log10(IC50)	2.78
CCOC(=O)c1c(C)nc(NCCCCCCCNc2ccnc3cc(Cl)ccc23)nc1-c1ccccc1	Plasmodium falciparum	log10(IC50)	3.05
CCOC(=O)c1c(C)nc(Nc2ccccc2Nc2ccnc3cc(Cl)ccc23)nc1-c1ccccc1	Plasmodium falciparum	log10(IC50)	4.17
CCOC(=O)c1c(C)nc(NCCCCCCCCNc2ccnc3cc(Cl)ccc23)nc1-c1ccccc1	Plasmodium falciparum	log10(IC50)	2.40
Cc1nc(NCCCNc2ccnc3cc(Cl)ccc23)nc(-c2ccccc2[N+](=O)[O-])c1C(=O)OC(C)C	Plasmodium falciparum	log10(IC50)	3.29
C[C@H]1[C@H](OC(=O)CCC(=O)O)O[C@@H]2O[C@@]3(C)CC[C@H]4[C@H](C)CC[C@@H]1[C@@]24OO3 [ARTESUNATE]	Plasmodium falciparum	log10(IC50)	0.72
CCOC(=O)c1c(C)nc(NCCCNc2ccnc3cc(Cl)ccc23)nc1-c1ccccc1	Plasmodium falciparum	log10(IC50)	2.39
Cc1nc(NCCCCNc2ccnc3cc(Cl)ccc23)nc(-c2ccccc2[N+](=O)[O-])c1C(=O)OC(C)C	Plasmodium falciparum	log10(IC50)	1.26
CCOC(=O)c1c(C)nc(NCCCCNc2ccnc3cc(Cl)ccc23)nc1-c1ccccc1	Plasmodium falciparum	log10(IC50)	2.31
CCOC(=O)c1c(C)nc(NCCNc2ccnc3cc(Cl)ccc23)nc1-c1ccccc1	Plasmodium falciparum	log10(IC50)	1.34
CCOC(=O)c1c(C)nc(NCCCNc2ccnc3cc(Cl)ccc23)nc1C	Plasmodium falciparum	log10(IC50)	1.80
Cc1nc(NCCNc2ccnc3cc(Cl)ccc23)nc(-c2ccccc2[N+](=O)[O-])c1C(=O)OC(C)C	Plasmodium falciparum	log10(IC50)	2.24
CCOC(=O)c1c(C)nc(NCC(C)Nc2ccnc3cc(Cl)ccc23)nc1-c1ccccc1 (stereo not given)	Plasmodium falciparum	log10(IC50)	4.20
CCOC(=O)c1c(C)nc(NCCCCNc2ccnc3cc(Cl)ccc23)nc1C	Plasmodium falciparum	log10(IC50)	1.62
